experiment: Human HepG2 cell viability assay in 384 well format; format: toxicity, cell-based; design: dose 125 nL, time 70.5 hour; concentration not given beside the values; settings: HepG2 cells, read-out: Inhibition
Catalogue of cytotoxicity at 70.5 h values

| Compound | cytotoxicity at 70.5 h, % |
| --- | --- |
| Cc1ncc2c(n1)CN(CC(=O)NCCOc1ccccc1)CC2 | -11.5 |
| O=C(c1ccc(S(=O)(=O)NC2CCC2)cc1)N1CC[C@H]2CNC[C@H]21 | -3.93 |
| COc1ccc(C2=CCN(C(=O)C3CCS(=O)(=O)C3)CC2)cc1 (stereo unspecified) | 19.4 |
| CN1CCCCC12Cc1ccccc1CN(C(=O)C1CCCC1)C2 (stereo unspecified) | -6.1 |
| CC(C)c1nc(CN(C)S(=O)(=O)c2cccs2)cs1 | 1.87 |
| COC(=O)CC(c1ccc(OC)c(OC)c1OC)c1c(O)n[nH]c1C (stereo unspecified) | -15.1 |
| Cc1nc(C(=O)N2CCC(Cc3cnc4[nH]ccc4c3)C2)co1 (stereo unspecified) | 18.9 |
| CC(=O)N1CC(=O)N(c2ccccc2)CC12CCN(Cc1ccoc1)C2 (stereo unspecified) | -14.4 |
| CCCn1nc(C(=O)NCc2nnc3n2CCC3)ccc1=O | 22.5 |
| CC(=O)c1ccc(C(=O)N2CCC(c3cc(O)nc(C)n3)CC2)s1 | -10.9 |
| Cc1cc(C)n(CC2CCN(CC(O)COc3ccccc3)CC2)n1 (stereo unspecified) | -6.54 |

----------
assay: Human HepG2 cell viability assay in 384 well format; type: toxicity, cell-based; parameters: dose 125 nL, time 70.5 hour; concentration not given beside the values; settings: HepG2 cells, read-out: Inhibition
Catalogue of cytotoxicity at 70.5 h values

| Molecule | cytotoxicity at 70.5 h, % |
| --- | --- |
| CN(C)C(=O)CCS(=O)(=O)Cc1ccn(-c2cccc(F)c2)n1 | 4.33 |
| COc1ccnc(NC(Cc2ccccc2)C(=O)N(C)C)n1 (stereo unspecified) | 5.68 |
| O=C(CCn1ccnc1)N1CCC(c2nnc(-c3ccccn3)o2)CC1 | -3.21 |
| COc1ccc2cc(C3CN(C(=O)N(C)C)CCO3)ccc2c1 (stereo unspecified) | 26.1 |
| CCc1ccsc1C(=O)N1CCN(C(=O)CC(F)(F)F)CC1 | 3.81 |
| CN(Cc1cccc(OC(F)(F)F)c1)Cc1cnn(C)c1 | -12.4 |
| CCC(NC(=O)c1nn(C)cc1C(=O)O)c1ccc(C)cc1 (stereo unspecified) | -5.71 |
| Oc1ccccc1CN1C[C@H](O)C[C@H]1c1nc(Cc2ccccc2)no1 | -6.19 |
| CC(C)OCCCN1CCCC(c2nc3ccccc3n2C(C)C)C1 (stereo unspecified) | 13.2 |
| CSc1ccc(CN(C(=O)c2cc(C)[nH]c(=O)c2)C2CC2)cc1 | 0.291 |
| Cc1ccoc1C(=O)NC1CCN(Cc2cccc3ccccc23)CC1 | 1.33 |

----------
experiment: Human HepG2 cell viability assay in 384 well format; type: toxicity, cell-based; set-up: dose 125 nL, time 70.5 hour; concentration not given beside the values; conditions: HepG2 cells, read-out: Inhibition
Catalogue of cytotoxicity at 70.5 h values

| Compound | cytotoxicity at 70.5 h |
| --- | --- |
| O=C1c2cccnc2OC(CN2CCOCC2)CN1C1CCC1 (stereo unspecified) | -4.26% |
| COCCCN1CCC(C(=O)c2cc(F)ccc2F)CC1 | -0.37% |
| Cc1[nH]c(-c2ccccc2)nc1C(=O)N1CCC2(CCCO2)CC1 | -2.81% |
| COCCN1CCOCC2(C1)CN(C(=O)c1conc1C)CCO2 (stereo unspecified) | -1.78% |
| CN1CCCN(c2ccc(F)cc2CNC(=O)c2ccsc2)CC1 | -4.69% |
| CC(C)(C)c1cnc(CN2CCC(NC(=O)NC3CCCCC3)CC2)o1 | 1.07% |
| CCc1nc(C2CCCN(C(=O)C3=NN(C(C)C)C(=O)CC3)C2)no1 (stereo unspecified) | -13.3% |
| Cn1nc(Br)c2c(NCCCS(N)(=O)=O)ncnc21 | -22.7% |
| Cn1cc(CN2C[C@@H]3CCCO[C@@H]3[C@H](NC(=O)CC3CC3)C2)cn1 | 11.8% |
| Cc1ncsc1CN1CC[C@H](O)[C@@H](n2cnc3c(N)ncnc32)CC1 | 8.32% |
| NCc1ccc(Oc2ccc(F)c(F)c2)cc1C(F)(F)F | -0.173% |

Origin of values: ChEMBL document CHEMBL3507680
